TESTED_TARGET: S1P1 (Homo sapiens (Human), UniProt P21453)
Sequence (P21453 whole entry): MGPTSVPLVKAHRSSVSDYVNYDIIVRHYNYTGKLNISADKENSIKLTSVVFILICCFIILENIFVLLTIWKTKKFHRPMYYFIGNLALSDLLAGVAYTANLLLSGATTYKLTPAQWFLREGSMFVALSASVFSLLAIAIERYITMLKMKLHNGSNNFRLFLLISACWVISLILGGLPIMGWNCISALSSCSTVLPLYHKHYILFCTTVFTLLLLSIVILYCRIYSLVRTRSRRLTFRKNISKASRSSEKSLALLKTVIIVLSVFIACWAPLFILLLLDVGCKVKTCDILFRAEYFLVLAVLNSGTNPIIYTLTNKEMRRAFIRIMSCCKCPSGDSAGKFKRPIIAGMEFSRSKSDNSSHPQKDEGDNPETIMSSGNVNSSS
VALUE_KIND: log10 of IC50 (log10 of the value in nM)

{"COMPOUND": "Nc1ncccc1-c1noc(CCC2(c3ccccc3)CCCCC2)n1", "log10 of IC50": 0.28}
{"COMPOUND": "Clc1cc(-c2noc(CCC3(c4ccccc4)CCCCC3)n2)ccn1", "log10 of IC50": -0.27}
{"COMPOUND": "c1ccc(C2(CCc3nc(-c4ccccn4)no3)CCCCC2)cc1", "log10 of IC50": 1.99}
{"COMPOUND": "c1ccc(-c2noc(C3(c4ccccc4)CCCCC3)n2)cc1 [Example 42, reference compound]", "log10 of IC50": 4.08}
{"COMPOUND": "Fc1ccc(-c2noc(CCC3(c4ccccc4)CCCCC3)n2)cc1", "log10 of IC50": 1.08}
{"COMPOUND": "c1ccc(-c2noc(CCC3(c4ccccc4)CCCCC3)n2)cc1", "log10 of IC50": 0.52}
{"COMPOUND": "O=c1cc(-c2noc(CCC3(c4cc(F)cc(F)c4)CCCCC3)n2)cc[nH]1", "log10 of IC50": 1.11}
{"COMPOUND": "[O-][n+]1ccc(-c2noc(CCC3(c4ccccc4)CCCCC3)n2)cc1", "log10 of IC50": 1.83}
{"COMPOUND": "FC(F)(F)c1cccc(-c2noc(CCC3(c4ccccc4)CCCCC3)n2)c1", "log10 of IC50": 1.52}
